tested on: S1P1 (Homo sapiens)
Sequence (P21453 whole entry): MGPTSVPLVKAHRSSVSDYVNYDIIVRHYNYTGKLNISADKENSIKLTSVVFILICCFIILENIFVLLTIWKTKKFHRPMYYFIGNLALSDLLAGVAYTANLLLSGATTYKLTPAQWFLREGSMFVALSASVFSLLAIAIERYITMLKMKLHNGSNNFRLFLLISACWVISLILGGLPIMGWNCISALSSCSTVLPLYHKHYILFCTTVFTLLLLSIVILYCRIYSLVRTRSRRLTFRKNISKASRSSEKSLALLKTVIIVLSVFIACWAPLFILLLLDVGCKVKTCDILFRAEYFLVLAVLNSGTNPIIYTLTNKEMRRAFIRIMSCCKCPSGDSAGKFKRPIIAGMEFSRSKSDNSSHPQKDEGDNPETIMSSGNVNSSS
method description: S1P1 internalization assay in S1P1-U2OS cells (S1P1-EGFP), cell imaging
Type: cell-based
Design: host or cells: U2OS (human bone osteosarcoma epithelial cells), CMV promoter, geneticin selection
experimental parameters: 1 hour incubation
Counter-ions that a name gives are not always drawn.
List of pEC50 values.
# log scale: pEC50 equals minus log10 of the concentration in mol/L

compound	tested on	measured value
COCc1cc(-c2nc(-c3ccc(CNCC(=O)O)c(F)c3)no2)ccc1-c1ccccc1F [Example 82, hydrochloride salt]	S1P1 (Homo sapiens)	8.76
COCc1cc(-c2nc(-c3cc(F)cc(CN(C)CCC(=O)O)c3)no2)ccc1-c1ccccc1C [Example 21, hydrochloride salt]	S1P1 (Homo sapiens)	8.34

Return reported pEC50; argument: COCc1cc(-c2nc(-c3cccc(CN(CCC(=O)O)C(C)C)c3)no2)ccc1-c1ccccc1C [Example 108, hydrochloride salt] 7.85

Return reported pEC50; argument: COCc1cc(-c2nc(-c3ccc(CN(C)CCC(=O)O)cc3)no2)ccc1-c1ccccc1C [Example 74, hydrochloride salt] 8.84

Return reported pEC50; argument: `Cc1cc(CNCC(=O)O)ccc1-c1noc(-c2ccc(-c3ccccc3C)c(C(F)(F)F)c2)n1` 8.55

Return reported pEC50; argument: COCc1cc(-c2nc(-c3cccc(CN(C)CC(=O)O)c3)no2)ccc1N1CCCC1C (stereo not shown) 7.87

Return reported pEC50; argument: Cc1cc(-c2nc(-c3ccc(CN(C)CC(=O)O)cc3)no2)ccc1-c1ccccc1C(F)F [Example 137, hydrochloride salt] 7.54

---

List of pEC50 values.
tested on: S1P1 (Homo sapiens)
method description: S1P1 internalization assay in S1P1-U2OS cells (S1P1-EGFP), cell imaging
Assay type: cell-based
Parameters: host or cells: U2OS (human bone osteosarcoma epithelial cells), CMV promoter, geneticin selection
experimental parameters: 1 hour incubation
Counter-ions that a name gives are not always drawn.
# log scale: pEC50 equals minus log10 of the concentration in mol/L

Under S1P1 (Homo sapiens): pEC50 value of COCc1cc(-c2nc(-c3cccc(CN(C)CC(=O)O)c3)no2)ccc1-c1cc(F)ccc1Cl [Example 65, hydrochloride salt] ? 7.66

Under S1P1 (Homo sapiens): pEC50 value of COCc1cc(-c2nc(-c3cccc(CC(=O)NCCN(C)C)c3)no2)ccc1-c1ccccc1C [Example 41] ? 7.11

Under S1P1 (Homo sapiens): pEC50 value of COCc1cc(-c2nc(-c3cccc(CN(C)CC(=O)O)c3)no2)ccc1-c1cc(F)ccc1C [Example 37, hydrochloride salt] ? 8.18

Under S1P1 (Homo sapiens): pEC50 value of COCc1cc(-c2nc(-c3cccc(CN(CCO)CCC(=O)O)c3)no2)ccc1-c1ccccc1C [Example 66, hydrochloride salt] ? 7.35

Under S1P1 (Homo sapiens): pEC50 value of COCc1cc(-c2nc(-c3cc(F)cc(CN(C)CC(=O)O)c3)no2)ccc1-c1ccccc1F [Example 57, hydrochloride salt] ? 8.07

Under S1P1 (Homo sapiens): pEC50 value of COCc1cc(-c2nc(-c3cc(F)c(C(=O)NCCC(=O)O)cc3F)no2)ccc1-c1ccccc1C [Example 47] ? 7.69

Under S1P1 (Homo sapiens): pEC50 value of COCc1cc(-c2nc(-c3cc(F)cc(CN(C)CC(=O)O)c3)no2)ccc1-c1ccccc1C [Example 20, hydrochloride salt] ? 8.27
